assay: NCI Yeast Anticancer Drug Screen. Data for the bub3 strain (AID 167); details: S. cerevisiae bub3 mutant strain, at 50.0 µM
About 79,000 compounds went through this panel and 15% of them were active in at least one assay; those are over-represented in the sample as a whole. The source made the active and inactive calls. Cut-off read from the data, not from the text of the source: active = growth inhibition above about 70%; inactive = the rest.
Outcome codes: 1 for active, -1 for inactive

compound=Clc1cccc2ccccc12 discrete_label=-1
compound="NC(=O)C(Cl)c1ccccc1 (stereo not drawn)" discrete_label=-1
compound=CCC(=O)[O][Sn]([CH3])([CH3])[O][Sn]([CH3])([CH3])[O]C(=O)CC discrete_label=-1
compound=C=C[CH2][Sn]([Br])([c]1ccccc1)[c]1ccccc1 discrete_label=1
compound=O=c1ccc(=O)[nH][nH]1.[Zn+2] discrete_label=-1
compound="CC1OC(OC2C(O)CC(OC3C(O)CC(OC4CCC5(C)C(CCC6C5CCC5(C)C(C7=CC(=O)OC7)C(O)CC65O)C4)OC3C)OC2C)CC(O)C1O (stereo not drawn)" discrete_label=-1
compound=CC(C)(C)OO discrete_label=-1
compound=O=C(COc1cccc(Cl)c1)Nc1cccc(NC(=O)c2ccc(S(=O)(=O)F)cc2)c1 discrete_label=-1
compound=Nc1ccc(Sc2ccc(N)cc2)cc1 discrete_label=-1
compound=CCCCP(CCCC)CCCC discrete_label=-1
compound=CC(=O)Cc1c[nH]c2ccccc12 discrete_label=-1
compound=O=P(O)(O)SP(=O)(O)O.[Mn] discrete_label=-1
compound=CC(C)CN(CC(C)C)[N+](=O)[O-] discrete_label=-1

====

test: NCI Yeast Anticancer Drug Screen. Data for the sgs1 mgt1 strain (AID 161);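 note: 0% = growth of cultures given vehicle only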; settings: S. cerevisiae sgs1 mgt1 strain, at 50.0 µM, active compounds read high
This is part of a sample that, as a whole, favours compounds with a hit. Of some 79,000 tested, about 15% had one in any assay.
Metric: growth inhibition (%)

molecule=CC(=O)OC(C)(C)/C=C/C(=O)[C@](C)(O)[C@H]1[C@H](O)C[C@@]2(C)[C@@H]3CC=C4[C@@H](C[C@H](O)C(=O)C4(C)C)[C@]3(CO)C(=O)C[C@]12C metric="growth inhibition" reported_result=15.3
molecule="O=C(O)CC(=O)O.[NH-]C1CCCCC1[NH-].[Pt+2] (configuration not stated)" metric="growth inhibition" reported_result=21.4
molecule=O=C(COc1ccc(Cl)c(Cl)c1)Nc1ccccc1S(=O)(=O)F metric="growth inhibition" reported_result=-3.8
molecule=CCOC(=O)C1=C(C)/C(=C\c2[nH]c(C)c(C(=O)OCC)c2C)N=C1C metric="growth inhibition" reported_result=23
molecule="CC(N)C(=O)c1ccccc1 (configuration not stated)" metric="growth inhibition" reported_result=6.9
molecule=Nc1ccccc1Nc1ccccc1C(=O)[O-].Nc1ccccc1Nc1ccccc1C(=O)[O-].[Cu+2] metric="growth inhibition" reported_result=-19.5
molecule=C1CN1[PH+](N1CC1)N1CC1.[C-]#[O+].[C-]#[O+].[C-]#[O+].[C-]#[O+].[C-]#[O+].[W] metric="growth inhibition" reported_result=-21
molecule=SCCS metric="growth inhibition" reported_result=-14.6
molecule=Nc1cccc2c1Cc1cc([N+](=O)[O-])ccc1-2 metric="growth inhibition" reported_result=17.6
molecule=CCC1(CCBr)C(=O)NC(=O)NC1=O metric="growth inhibition" reported_result=11.8
molecule="O=C1OC(C(O)CO)C(O)=C1OC[N+]1(CCCl)CCN(CCCl)CC1 (configuration not stated)" metric="growth inhibition" reported_result=4.9
molecule=[C-]#[O+].[Cl][Ru]([Cl])([Cl])([Cl])[Cl] metric="growth inhibition" reported_result=35
molecule="S=P1(c2ccccc2)C=C(N2CCCC2)CC1 (configuration not stated)" metric="growth inhibition" reported_result=16.6
molecule="CCCOP1(=O)C=C(C)C(Cl)=C(C)C1 (configuration not stated)" metric="growth inhibition" reported_result=20
molecule=CCCC/C=C(/C)C1(CC)C(=O)NC(=O)NC1=O metric="growth inhibition" reported_result=-2
molecule=O=C1NCCCC1(Cl)Cl metric="growth inhibition" reported_result=4.2
molecule=N#Cc1ccc(Cc2ccccn2)cc1Cl metric="growth inhibition" reported_result=-8.9
molecule=CCOC(=O)C[Se]CC(=O)OCC metric="growth inhibition" reported_result=11.2
molecule=N#CC(C#N)=Cc1ccccc1O metric="growth inhibition" reported_result=-1.95
molecule=Cc1ccccc1-n1c(/C=C\c2ccccn2)nc2ccccc2c1=O metric="growth inhibition" reported_result=33.4
molecule=N#Cc1cccnc1 metric="growth inhibition" reported_result=4.1
molecule=O=C1CCN(C2(c3ccccc3)CCCCC2)CC1 metric="growth inhibition" reported_result=3.55
molecule="O=P1(N2CCCCC2)OCC2(CO1)COP(=O)(N1CCCCC1)OC2 (configuration not stated)" metric="growth inhibition" reported_result=0.1
molecule="Cc1ccc(N=C2OP(=O)(Nc3ccc(C)cc3)Oc3ccccc32)cc1 (configuration not stated)" metric="growth inhibition" reported_result=-23.6
molecule="CC([NH-])C[NH-].CC([NH-])C[NH-].[Cl-].[Cl-].[Co+3].[O-][Cl+3]([O-])([O-])O (configuration not stated)" metric="growth inhibition" reported_result=40.5
molecule="O=C(NCC(O)CO)c1cc(N(CCCl)CCCl)c([N+](=O)[O-])cc1[N+](=O)[O-] (configuration not stated)" metric="growth inhibition" reported_result=-10.5
molecule=Cc1nc2ccccc2c(=O)n1-c1ccccc1Cl metric="growth inhibition" reported_result=-6.75
molecule="CCCC[N+]1(C)CCCC1c1cccnc1 (configuration not stated)" metric="growth inhibition" reported_result=5.3
molecule=CC(CO)([N+](=O)[O-])[N+](=O)[O-] metric="growth inhibition" reported_result=-0.05
molecule=COc1cc2c(c(OC)c1OC)-c1ccc(SC)c(=O)cc1[C@@H](NC(C)=O)CC2 metric="growth inhibition" reported_result=-19.1
molecule=CC[N+](CC)(CC)CC#CC[N+](CC)(CC)CC metric="growth inhibition" reported_result=14.3
molecule="C1CCN2CC3CONC3C2C1 (configuration not stated)" metric="growth inhibition" reported_result=2.05
molecule=O=NN1CCCS1(=O)=O metric="growth inhibition" reported_result=15.8
molecule=CCCC(=O)[O-].N.N.N.N.N.[Co+3].[O-][Cl+3]([O-])([O-])[O-] metric="growth inhibition" reported_result=-41
molecule=O=c1c(O)c(-c2ccccc2)oc2ccccc12 metric="growth inhibition" reported_result=35.5
molecule=S=[As](c1ccc(-c2ccccc2)cc1)(c1ccc(-c2ccccc2)cc1)c1ccc(-c2ccccc2)cc1 metric="growth inhibition" reported_result=-39.5
molecule=C#[C][Sn]([CH2]CCC)([CH2]CCC)[CH2]CCC metric="growth inhibition" reported_result=99.2
molecule=Cc1cc2oc(=O)c3c(c2c(O)c1CN1CCOCC1)CCCC3 metric="growth inhibition" reported_result=16.5
molecule=CC1(C)CN1C1=C(F)C(=O)C(N2CC2(C)C)=C(F)C1=O metric="growth inhibition" reported_result=50.5
molecule="CC12CCC3C4CCC(=O)C=C4CCC3C1CC1CC(=O)OC12 (configuration not stated)" metric="growth inhibition" reported_result=0.4
molecule=Nc1ccc(Sc2ccc(N)cc2)cc1 metric="growth inhibition" reported_result=-0.6
molecule=O=C(O)C(CP(=O)(O)O)=C(Cl)Cl metric="growth inhibition" reported_result=-13.9
molecule="CC1CN1P(=O)(N1CCc2ccccc21)N1CC1C (configuration not stated)" metric="growth inhibition" reported_result=-5.6
molecule="CCOC(=O)C12CCC(=O)C=C1CN(C)CC2 (configuration not stated)" metric="growth inhibition" reported_result=-3.3
molecule=N.N.N.N.N.N.[Br-].[Co+3] metric="growth inhibition" reported_result=-34.2
molecule=CCCCOCN(CCc1ccccc1)COCCCC metric="growth inhibition" reported_result=24.2
molecule="[C-]#[O+].[C-]#[O+].[C-]#[O+].[Cr].c1ccc(P(CC[PH+](CC[PH+](CC[PH+](c2ccccc2)c2ccccc2)c2ccccc2)c2ccccc2)c2ccccc2)cc1 (configuration not stated)" metric="growth inhibition" reported_result=41.5

====

experiment: NCI Yeast Anticancer Drug Screen. Data for the mec2-1 strain (AID 157); conditions: S. cerevisiae mec2-1 strain, at 50.0 µM, active compounds read high
About 79,000 compounds went through this panel and 15% of them were active in at least one assay; those are over-represented in the sample as a whole. Calls of active or inactive are those of the source. Cut-off read from the data, not from the text of the source: active = growth inhibition above about 70%; inactive = the rest.
# growth inhibition per entry
Metric: growth inhibition

molecule="C=CCNCC(O)c1ccccc1 (stereo unspecified)" metric="growth inhibition" reported_result="-14.2% (inactive)"
molecule=NC1C(=O)NC(=O)NC1=O metric="growth inhibition" reported_result="11.4% (inactive)"
molecule="N#CC(OC1OC(C(=O)O)C(O)C(O)C1O)c1ccccc1 (stereo unspecified)" metric="growth inhibition" reported_result="-14.5% (inactive)"
molecule="COc1ccc2c(c1)C1(C)CCN(CCc3ccccc3)C(C2)C1C (stereo unspecified)" metric="growth inhibition" reported_result="15.4% (inactive)"
molecule=COc1ccc(C(=O)O[C@H]2CC[C@@]3(C)[C@@H]4CC[C@H]5[C@]6(O)C[C@H](O)[C@@]7(O)[C@@H](CN8C[C@@H](C)CC[C@H]8[C@@]7(C)O)[C@]6(O)C[C@@]53OC24O)cc1OC metric="growth inhibition" reported_result="-32% (inactive)"
molecule=CC(=O)CC(C)=O.CC(=O)CC(C)=O.[Cl][Sn][c]1ccccc1 metric="growth inhibition" reported_result="23.7% (inactive)"
molecule=c1cc2c(cc1NC1=NCCO1)CCC2 metric="growth inhibition" reported_result="4.65% (inactive)"
molecule="c1ccc2c(c1)SCCC2NC1=NCCO1 (stereo unspecified)" metric="growth inhibition" reported_result="-13.6% (inactive)"
molecule=COc1cc(O)c2c(O)c3c(=O)cc(C)oc3cc2c1 metric="growth inhibition" reported_result="-6.2% (inactive)"
molecule=N#CC(C#N)=Cc1cccc(F)c1 metric="growth inhibition" reported_result="25.2% (inactive)"
molecule=O=C(O)c1ccc([N+](=O)[O-])c([N+](=O)[O-])c1 metric="growth inhibition" reported_result="4.95% (inactive)"
